Molecular target: pre-pro-human insulin
readout.name: Activity PPI cleavage

[
  {
    "protein": "trypsin variant SEQ ID NO: 127 (protein) IVGGYTCAANSIPYQVSLNSGSHRCGGSLINSQWVVSAAHCYKYRIQVRLGEHNIDVLEGNEQFINAAKIITHPNFNGNTLDNDIMLIKLSSPATLNSRVATVSLPRSCAAAGTECLISGWGNTKSSGSSYPSLLQCLKAPVLSDSSCKSSYPGQITGNMICVGFLEGGKDACQGDSGGPVVCNGQLQGIVSSGYGCAQKNKPGVYTKVCNYVNWIQQTIAAN",
    "observed.result": "yes"
  },
  {
    "protein": "trypsin variant SEQ ID NO: 43 (protein) IVGGYTCAANSIPYQVSLNSGSHRCGGSLINSQWVVSAAHCYKSRIQVRLGEHNIDVLEGNEQFINAAKIITHPNFNGNTLDNDIMLIKLSSPATLNSRVATVSLPRSCAAAGTECLISGWGNTKSSGSSYPSLLQCLKAPVLSDSSCKSSYPGQITGNMICVGFLEGGKDTCQGDSGGPVVCNGQLQGIVSSGYGCAQKNKPGVYTKVCNYVNWIQQTIAAN",
    "observed.result": "yes"
  }
]

These data points were gathered from patent US20230303994.
